Method: Equilibrium solubility in phosphate buffer pH 5
Experimental conditions: phosphate buffer, pH 5, aqueous buffer, thermodynamic from solid
Attribute measured: solubility (µg/mL)
Just the number please, in µg/mL, no unit attached.

Data point: CCCc1oc(=O)oc1COC(=O)C1=C(S[C@H]2CC[S@@+]([O-])C2)S[C@@H]2[C@@H]([C@@H](C)O)C(=O)N12 [Compound 2] ; solubility = 507

Data point: Cc1oc(=O)oc1COC(=O)C1=C(S[C@H]2CC[S@@+]([O-])C2)S[C@@H]2[C@@H]([C@@H](C)O)C(=O)N12 [Compound C1] ; solubility = 453

Data point: CCc1oc(=O)oc1COC(=O)C1=C(S[C@H]2CC[S@@+]([O-])C2)S[C@@H]2[C@@H]([C@@H](C)O)C(=O)N12 [Compound 1] ; solubility = 1200

====

What Km was measured for each of the following?
Method: Human Intestinal Juice (HIJ) stability studies
Assay type: in vitro ADME
Experimental conditions: human, pooled human intestinal juice (HIJ); pooled HIJ from 4 subjects, buffered pH 7.4, 37° C., substrate 1-300 μM
Just the number please, in µM, no unit attached.

Data point: CCc1oc(=O)oc1COC(=O)C1=C(S[C@H]2CC[S@@+]([O-])C2)S[C@@H]2[C@@H]([C@@H](C)O)C(=O)N12 [Compound 1] ; Km = 120

Data point: Cc1oc(=O)oc1COC(=O)C1=C(S[C@H]2CC[S@@+]([O-])C2)S[C@@H]2[C@@H]([C@@H](C)O)C(=O)N12 [Compound C1] ; Km = 172

Data point: CCCc1oc(=O)oc1COC(=O)C1=C(S[C@H]2CC[S@@+]([O-])C2)S[C@@H]2[C@@H]([C@@H](C)O)C(=O)N12 [Compound 2] ; Km = 22

====

Method: Human Intestinal Juice (HIJ) stability studies
Type: in vitro ADME
Experimental conditions: pooled HIJ from 4 subjects, buffered pH 7.4, 37° C., substrate 1-300 μM
Attribute measured: Km (µM)
Just the number please, in µM, no unit attached.

Data point: CCCCc1oc(=O)oc1COC(=O)C1=C(S[C@H]2CC[S@@+]([O-])C2)S[C@@H]2[C@@H]([C@@H](C)O)C(=O)N12 ; Km = 41

====

Method: Liver S9 stability and conversion efficiency to sulopenem
Format: in vitro ADME, human
Experimental conditions: human; prodrug degradation; liver S9 1:10, 50 μM, pH 7.4, 37° C.
Attribute measured: half-life at 50 µM
Report as: number unit

Data point: CCc1oc(=O)oc1COC(=O)C1=C(S[C@H]2CC[S@@+]([O-])C2)S[C@@H]2[C@@H]([C@@H](C)O)C(=O)N12 ; half-life at 50 µM = 3.11 min

Data point: Cc1oc(=O)oc1COC(=O)C1=C(S[C@H]2CC[S@@+]([O-])C2)S[C@@H]2[C@@H]([C@@H](C)O)C(=O)N12 ; half-life at 50 µM = 2.1 min

Data point: CCCc1oc(=O)oc1COC(=O)C1=C(S[C@H]2CC[S@@+]([O-])C2)S[C@@H]2[C@@H]([C@@H](C)O)C(=O)N12 ; half-life at 50 µM = 3.62 min

====

What HIJ CLint was measured for each of the following?
Method: Human Intestinal Juice (HIJ) stability studies
Format: in vitro ADME
Experimental conditions: pooled HIJ from 4 subjects, buffered pH 7.4, 37° C., substrate 1-300 μM
Just the number please, in mL/min, no unit attached.

Data point: CCc1oc(=O)oc1COC(=O)C1=C(S[C@H]2CC[S@@+]([O-])C2)S[C@@H]2[C@@H]([C@@H](C)O)C(=O)N12 ; HIJ CLint = 0.14

Data point: Cc1oc(=O)oc1COC(=O)C1=C(S[C@H]2CC[S@@+]([O-])C2)S[C@@H]2[C@@H]([C@@H](C)O)C(=O)N12 ; HIJ CLint = 0.13

Data point: CCCc1oc(=O)oc1COC(=O)C1=C(S[C@H]2CC[S@@+]([O-])C2)S[C@@H]2[C@@H]([C@@H](C)O)C(=O)N12 ; HIJ CLint = 0.16

Data point: CCCCc1oc(=O)oc1COC(=O)C1=C(S[C@H]2CC[S@@+]([O-])C2)S[C@@H]2[C@@H]([C@@H](C)O)C(=O)N12 ; HIJ CLint = 0.16
